targetOrTestSystem: recombinant homotrimeric HA A/common magpie/Hong Kong/5052/07 H5N1 (Influenza A virus A/common magpie/Hong Kong/5052/2007(H5N1))
assayNotes: protein microarray, purified IgG, trimeric HA
condition: remark: other sources report otherwise
assayEndpoint: Trimeric HA Binding: RLU (RLU)

[
  {
    "binder": "TCN-523 (5248_A17) (antibody, V domains shown) VH: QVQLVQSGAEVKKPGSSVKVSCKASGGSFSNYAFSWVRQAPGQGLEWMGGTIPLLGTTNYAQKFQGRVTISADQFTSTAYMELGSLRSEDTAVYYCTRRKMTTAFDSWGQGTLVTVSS VL: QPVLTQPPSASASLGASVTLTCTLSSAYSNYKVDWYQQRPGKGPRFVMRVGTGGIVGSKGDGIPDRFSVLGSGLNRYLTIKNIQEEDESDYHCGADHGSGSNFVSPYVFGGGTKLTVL",
    "assayEndpoint": "Trimeric HA Binding: RLU",
    "valueReported": 20900
  }
]
